These measurements were taken from PubChem BioAssay (NCI).

This section presents compounds with their documented growth values.
system: SNB-19 CNS; experiment: NCI-60 one-dose screen, 48 h (100 = growth as untreated, 0 = no growth, -100 = all killed); settings: 10 µM
This is part of a sample that, as a whole, favours compounds with a hit. Of some 83,000 tested, about 20% had one in any assay. Activity calls are given as the source filed them. The calls were made as follows: active = growth percent below 10; inactive = the rest.

{"compound": "CS(=O)(=O)c1nccc(-c2c(-c3cccc(O)c3)nc3sccn23)n1", "growth": "103% (inactive)"}
{"compound": "N#CC1=CC2CN(Cc3ccccc3)C1C1C(=O)N(c3ccccc3)C(=O)C21 (stereo not given)", "growth": "101% (inactive)"}
{"compound": "C(=N\\Nc1ncnc2sc3c(c12)CCNC3)/c1cccc2ccccc12", "growth": "79.1% (inactive)"}
{"compound": "CCOC(=O)c1cc(C(=O)c2cc(OC)c(OC)c(OC)c2)n2ccc(-c3cc[n+](CC(=O)c4cc(OC)c(OC)c(OC)c4)cc3)cc12", "growth": "32.2% (inactive)"}
{"compound": "Clc1nc2ccccc2cc1Cn1nnc(Cc2ccccc2)n1", "growth": "89.9% (inactive)"}

====

test system: T-47D breast; assay: NCI-60 one-dose screen, 48 h; settings: 10 µM
Compounds without any hit were thinned out: in the full panel of roughly 83,000, 20% have a hit. The source made the active and inactive calls. How the source made its calls: active means growth percent below 10; inactive means the rest.
Classes used: y = active, n = inactive

{"compound": "Cc1cc(Cl)ccc1Nc1nc(C(F)(F)F)ccc1C(=O)N/N=C/c1c(Cl)cccc1Cl", "assignedClass": "y"}
{"compound": "COc1cc(-c2nn(-c3cccc(NC(=O)NCCNC(=O)c4cccc(C(F)(F)F)c4)c3)cc2-c2ccncc2)ccc1Cl", "assignedClass": "n"}
{"compound": "COc1ccc(/C=C2\\CCCC3=C2N=C2SC(C)=CN2C3c2ccc(OC)cc2)cc1 (stereo not given)", "assignedClass": "n"}
{"compound": "COc1ccc2c(c1)C(=O)/C(=C/c1cccc(OCC(=O)c3ccc([N+](=O)[O-])cc3)c1)CO2", "assignedClass": "n"}
{"compound": "O=C(N/N=C/c1cc([N+](=O)[O-])ccc1O)c1cccc2ccccc12", "assignedClass": "n"}

====

tested on: MALME-3M melanoma; assay: NCI-60 one-dose screen, 48 h (100 = growth as untreated, 0 = no growth, -100 = all killed); conditions: 10 µM
About 83,000 compounds went through this panel and 20% of them were active in at least one assay; those are over-represented in the sample as a whole.
This section presents molecules with their documented growth values.
measuredMetric: growth (%)

{"molecule": "O=C1/C(=C/c2ccc3c(c2)OCO3)SC(=S)N1C1c2ccccc2Oc2ccccc21", "measuredValue": 80.1}
{"molecule": "OCC1OC(n2cnc3c(NCc4ccco4)ncnc32)C(O)C1O (stereo not drawn)", "measuredValue": 65.5}
{"molecule": "COc1ccc(-c2cc(-c3cc(OC)ccc3OC)nc(N)c2C#N)cc1", "measuredValue": 36.9}
{"molecule": "O=C(O)c1ccc(-n2cc(CNc3ccc(Oc4ccccc4)cc3)c(-c3ccccc3)n2)cc1", "measuredValue": 88.6}
{"molecule": "COc1cc2cc(Oc3ccc(NC(=O)Nc4ccc(C(F)(F)F)cc4)cc3)c(C)nc2cc1OC", "measuredValue": 82.9}
{"molecule": "COc1cc(-c2nn(-c3cccc(NC(=O)NCCNS(=O)(=O)c4ccc(Cl)cc4)c3)cc2-c2ccncc2)ccc1Cl", "measuredValue": 10.9}
{"molecule": "COc1ccc2nc(Cl)c(Cn3nnc(Cc4ccccc4)n3)cc2c1", "measuredValue": 34.4}
{"molecule": "CCOC(=O)C1=CSC2=NC3=C(CCC/C3=C\\c3cc(OC)c(OC)c(OC)c3)C(c3cc(OC)c(OC)c(OC)c3)N12 (stereo not drawn)", "measuredValue": 74.6}
{"molecule": "CO[C@H]1CC(O[C@@H]2/C(C)=C/C[C@@H]3C[C@@H](C[C@]4(C=C[C@H](C)[C@@H](C5CCCCC5)O4)O3)OC(=O)[C@@H]3C=C(C)[C@@H](O)[C@H]4OC/C(=C\\C=C\\[C@@H]2C)[C@]43O)O[C@@H](C)C1O[C@H]1C[C@H](OC)[C@@H](O)[C@H](C)O1 (stereo partly drawn)", "measuredValue": -68.1}
{"molecule": "Cc1cc(SC#N)cc(C(C)(C)C)c1O", "measuredValue": 85.8}
{"molecule": "CCOC(=O)c1cc(C(=O)c2cc(OC)c(OC)c(OC)c2)n2nc(C)ccc12", "measuredValue": 77.9}
{"molecule": "CCN(CC)CC(=O)N(CC)c1ccc(C)c(Cl)c1", "measuredValue": 96.2}
{"molecule": "Cc1cn(-c2cccc(NC(=O)c3ccc(C)c(Nc4nccc(-c5cccnc5)n4)c3)c2)cn1", "measuredValue": 42}
{"molecule": "CCN(CC)CCNc1ccc(C)c2sc3cc(Cl)ccc3c(=O)c12", "measuredValue": -26.4}
{"molecule": "CCOC(=O)c1sc2ncnc(Nc3ccc4c(cnn4C(=O)Nc4ccc(C)c(Cl)c4)c3)c2c1C", "measuredValue": 91.1}
{"molecule": "CCn1c(SCCc2ccccc2)nnc1-c1nn(-c2ccc(Cl)cc2Cl)c(-c2ccc(Cl)cc2)c1C", "measuredValue": 96}
{"molecule": "O=C(CSc1nccc(Nc2cccc3ccccc23)n1)c1ccc(Cl)cc1", "measuredValue": 101}
{"molecule": "CCOC(=O)c1cc(C(=O)c2cc(OC)c(OC)c(OC)c2)n2c1ccc1c3cccnc3ccc12", "measuredValue": 79.3}
